# System: MDA-MB-231 breast
# PROTOCOL_NOTES: NCI tumour cell line growth inhibition, 48 h
RECORDED_METRIC: TGI

OC(c1ccccc1)(c1cccnc1)C(O)(c1ccccc1)c1cccnc1 (centres undefined)    > 100 µM
Cc1cc(O)c(C(c2ccncc2)c2c(O)cc(C)[nH]c2=O)c(=O)[nH]1    > 100 µM
Cc1ccc2c(=O)c(-c3n[nH]c(=S)s3)c[nH]c2n1    > 100 µM
CC1=CC(=O)/C(=C/n2c(=S)[nH]c3ccccc32)C(=O)O1    > 100 µM
CC(C)(C)C(=O)OCc1nc2cc3c(cc2c(=O)[nH]1)CCC3=O    > 100 µM
COc1ccccc1NCC(=O)Nn1c(C)nc2ccc(S(=O)(=O)Nc3ccccc3OC)cc2c1=O    > 100 µM
O=C(CCl)Nc1cc(O)c2c(c1)C(=O)c1cccc(O)c1C2=O    5.88 µM
CO[C@H](C(=O)O)[C@@H]1Cc2cc3cc(OC4CC(OC5CC(O)C(O)C(C)O5)C(O)C(C)O4)c(C)c(O)c3c(O)c2C(=O)[C@H]1OC1CC(OC2CC(OC3CC(C)(O)C(O)C(C)O3)C(O)C(C)O2)C(O)C(C)O1 (some centres undefined)    > 32.5 µM

The record that follows has no TGI shown yet.
Input line: Please report the recorded TGI for `COC(=O)[C@H](CCSC)NC(=O)c1ccc(CNC(=O)/C(C)=C/c2ccccc2)cc1` .
Output line: > 100 µM

* * *

Entries annotated with measured GI50
# Tested on: UACC-257 melanoma
# PROTOCOL_NOTES: NCI tumour cell line growth inhibition, 48 h

N#Cc1cccc(OCc2ccccc2COc2cccc(C#N)c2)c1    > 100 µM
COc1ccc(/C=N/N=C(\[O-])c2ccncc2)cc1F.COc1ccc(/C=N\N=C(/[O-])c2ccncc2)cc1F.[Cu+2]    17.9 µM
CC[C@H](NC(=O)[C@H](CS(=O)(=O)CC1CC1)N[C@@H](c1ccc(F)cc1)C(F)(F)F)C(=O)C(=O)NC1CC1    > 100 µM

Input line: Please report the recorded GI50 for `C#CCN(Cc1nc2cc(C(F)(F)F)ccc2nc1-c1ccccc1)c1ccc(F)c(F)c1` .
Output line: 40.5 µM

* * *

# Test system: SK-MEL-28 melanoma
# PROTOCOL_NOTES: NCI tumour cell line growth inhibition, 48 h
RECORDED_METRIC: TGI (µM)
Report the value in µM with no unit label.

COC(=O)[C@H](CCSC)NC(=O)c1ccc(CNC(=O)/C(C)=C/c2ccccc2)cc1    64.7
CCOc1cc(C(C)(C)C)ccc1C1=N[C@@](C)(c2ccc(Cl)cc2)[C@@](C)(c2ccc(Cl)cc2)N1C(=O)N1CCN(CCS(C)(=O)=O)CC1    14.3
Cn1cc(NC(=O)c2cc(NC(=O)CCCCCCC(=O)Nc3cc(C(=O)Nc4cc(C(=O)NCCC(=N)N)n(C)c4)n(C)c3)cn2C)cc1C(=O)NCCC(=N)N    16.9

The record that follows has no TGI shown yet.
Input line: Provide the documented TGI with SK-MEL-28 melanoma as the system for `CN(C)CCNc1nc2ccccc2c2c(=O)c3ccccc3sc12`
Output line: 3.98

* * *

# Test system: CCRF-CEM leukemia
# PROTOCOL_NOTES: NCI tumour cell line growth inhibition, 48 h
Entries annotated with measured TGI

Consider the worked cases shown below.
CC(=O)O[C@H]1C=CC23OC(=O)[C@]1(C)[C@H]2[C@H](C(=O)O)C12CC(=O)[C@@](CO)(CC[C@H]13)C2    > 100 µM
O=P1(c2ccccc2)C2=CCC=CC2C(c2ccccc2)N1Cc1ccccc1 (stereo not given)    34.9 µM
CC(C)N(C(C)C)P(OCCC#N)OC1CC(n2cnc3c(=O)[nH]cnc32)OC1COC(=O)NCCCCCCNC(=O)OC(C)(C)c1ccc(-c2ccccc2)cc1 (stereo not given)    43.8 µM
Cc1cccc(NC2=NCCO2)c1Cl    > 100 µM
CC(=O)CC(=O)/C=C/c1cccs1    > 100 µM

Input line: Please report the recorded TGI for `CC(C)(C)C(=O)OCc1nc2cc3c(cc2c(=O)[nH]1)CCC3=O` .
Output line: > 100 µM

Input line: Param item: `O=c1c2c3c(sc2n2c(-c4ccc(Br)cc4)nnc2n1Cc1ccccc1)CCCC3`
Output line: 29.2 µM

Input line: Param item: `C=CCCC(=O)N1C=CC(=O)[C@H](O)[C@@H]1/C=C/c1ccccc1`
Output line: > 32.5 µM

Input line: Param item: `COc1ccccc1NS(=O)(=O)c1ccc2ncn(NS(=O)(=O)c3ccc(Cl)cc3)c(=O)c2c1`
Output line: > 100 µM

Input line: Param item: `Cn1ccnc1C[N-]Cc1nccn1C.O=[N+]([O-])[O-].O=[N+]([O-])[O-].[Cu+2]`
Output line: > 100 µM

Input line: Param item: `CN(CCO)/N=N/c1[nH]ncc1C(N)=O`
Output line: > 100 µM

Input line: Param item: `CC(C)c1cccc(C(C)C)c1OS(=O)(=O)NC(=O)OC(C(F)(F)F)C(F)(F)F`
Output line: > 100 µM

Input line: Param item: `CCN(CC)CCC(=O)c1ccc(Oc2ccc(F)cc2)cc1`
Output line: 50.1 µM

Input line: Param item: `CC(/C=N/NC1=NCCCN1)=N\NC1=NCCCN1`
Output line: > 100 µM

Input line: Param item: CCC1(O)CC(OC2CC(N(C)C)C(OC3CC(O)C(OC4CCC(=O)C(C)O4)C(C)O3)C(C)O2)c2c(O)c3c(c(O)c2C1C(=O)OC)C(=O)c1cccc(O)c1C3=O (stereo not given)
Output line: 0.0328 µM

Input line: Param item: `O=C(Nc1cccc(C(F)(F)F)c1)c1cc(Br)cc(Br)c1O`
Output line: > 10 µM

Input line: Param item: Nc1c(C(=O)Nc2cccc(Br)c2)sc2nc3c(cc12)C(O)CCC3 (stereo not given)
Output line: > 74.9 µM

Input line: Param item: `C=C1c2nc3ccccc3n2C=C(c2ccc(OC)cc2)N1c1ccc(OCCN2CCOCC2)cc1`
Output line: > 86.9 µM

Input line: Param item: OC1c2ccccc2C(O)C2OC12 (stereo not given)
Output line: > 100 µM

Input line: Param item: `COc1cc([C@@H]2c3cc4c(cc3C[C@H]3COC(=O)[C@@H]32)OCO4)cc2c1OCO2`
Output line: 97.7 µM
